# test.system: human TSHR (Homo sapiens, UniProt P16473)
# Sequence (P16473 21-764): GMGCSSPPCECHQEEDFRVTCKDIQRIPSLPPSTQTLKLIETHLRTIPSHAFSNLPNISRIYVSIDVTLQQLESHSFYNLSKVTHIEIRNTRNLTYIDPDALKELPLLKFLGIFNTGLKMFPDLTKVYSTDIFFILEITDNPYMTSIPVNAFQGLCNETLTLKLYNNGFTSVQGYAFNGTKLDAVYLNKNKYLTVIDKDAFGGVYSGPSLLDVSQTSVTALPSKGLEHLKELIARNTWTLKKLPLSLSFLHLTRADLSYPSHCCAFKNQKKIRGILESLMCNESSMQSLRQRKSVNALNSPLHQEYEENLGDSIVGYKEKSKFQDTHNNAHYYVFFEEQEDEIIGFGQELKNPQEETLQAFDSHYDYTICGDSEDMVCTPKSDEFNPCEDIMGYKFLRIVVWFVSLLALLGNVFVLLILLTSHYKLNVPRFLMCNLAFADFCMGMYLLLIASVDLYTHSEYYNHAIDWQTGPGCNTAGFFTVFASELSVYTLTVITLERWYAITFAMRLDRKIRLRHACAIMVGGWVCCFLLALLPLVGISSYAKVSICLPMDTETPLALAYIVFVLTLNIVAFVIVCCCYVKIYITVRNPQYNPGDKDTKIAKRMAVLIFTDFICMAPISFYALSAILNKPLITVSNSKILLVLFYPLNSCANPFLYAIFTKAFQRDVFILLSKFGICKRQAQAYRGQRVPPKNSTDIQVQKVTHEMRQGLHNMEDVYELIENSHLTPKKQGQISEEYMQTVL
# test.name: Antagonist activity using TSH-induced cAMP generation in human TSHR-stably expressing CHO cells
# reported.conditions: human TSH 50 ng/mL

{"molecule": "N#Cc1ccccc1Cc1c(-c2cccnc2CNC(N)=O)ccc(NC(=O)OC2CC3CCC2CC3)c1F (stereo not shown) [Example A-38]", "IC50": "300 to 30000 nM"}
{"molecule": "CC(C)(C)OC(=O)Nc1ccc(-c2cccnc2CNC(N)=O)c(Cc2ccccc2F)c1F [Example A-1]", "IC50": "< 300 nM"}
{"molecule": "Cc1nnccc1-c1ccc(NC(=O)OC(C)(C)C)c(F)c1Cc1ccccc1F [Example C-9]", "IC50": "300 to 30000 nM"}
{"molecule": "NC(=O)NCc1ncccc1-c1ccc(NC(=O)N2CCCC2)c(F)c1Cc1ccccc1F [Example G-6]", "IC50": "300 to 30000 nM"}
{"molecule": "C[C@@H](OC(=O)Nc1ccc(-c2cccnc2CNC(N)=O)c(Cc2ccccc2F)c1F)C(F)(F)F [Example A-24]", "IC50": "< 300 nM"}
{"molecule": "CC1(OC(=O)Nc2ccc(-c3cccnc3CNC(N)=O)c(Cc3ccccc3F)c2F)CC1 [Example A-4]", "IC50": "< 300 nM"}
{"molecule": "NC(=O)NCc1ncccc1-c1ccc(NC(=O)OC2CCC(F)(F)C2)c(F)c1Cc1ccccc1F (stereo not shown) [Example A-27]", "IC50": "< 300 nM"}
{"molecule": "C[C@H](OC(=O)Nc1ccc(-c2ccnnc2CCC(N)=O)c(Oc2ccccc2F)c1F)C(F)(F)F [Example D-4]", "IC50": "< 300 nM"}
{"molecule": "NC(=O)NCc1ncccc1-c1ccc(NC(=O)N2CC3(CCC3)C2)c(F)c1Cc1ccccc1F [Example G-7]", "IC50": "< 300 nM"}
{"molecule": "C[C@H](OC(=O)Nc1ccc(-c2cccnc2CCC(N)=O)c(C(=O)c2ccccc2F)c1F)C(F)(F)F [Example E-4]", "IC50": "< 300 nM"}
{"molecule": "CC(C)(C)OC(=O)Nc1ccc(-c2cccnc2CCC(N)=O)c(C(=O)c2ccccc2C(F)(F)F)c1F [Example E-8]", "IC50": "< 300 nM"}
{"molecule": "CC(C)(C)OC(=O)Nc1ccc(-c2cccnc2CNC(N)=O)c(Cc2ccccc2O)c1F [Example A-19]", "IC50": "< 300 nM"}
{"molecule": "NC(=O)CCc1ncccc1-c1ccc(NC(=O)OC2CC(F)(F)C2)c(F)c1C(=O)c1ccccc1C(F)(F)F [Example E-9]", "IC50": "300 to 30000 nM"}
{"molecule": "Cc1c(NC(=O)OC(C)(C)C)ccc(-c2cccnc2CNC(N)=O)c1Cc1ccccc1F [Example A-13]", "IC50": "< 300 nM"}
{"molecule": "CC(C)C(=O)Nc1ccc(-c2cccnc2CNC(N)=O)c(Cc2ccccc2F)c1F [Example G-2]", "IC50": "300 to 30000 nM"}
{"molecule": "NC(=O)NCc1ncccc1-c1ccc(NC(=O)C2CC(F)(F)C2)c(F)c1Cc1ccccc1F [Example G-4]", "IC50": "< 300 nM"}
{"molecule": "CC(C)(C)OC(=O)Nc1ccc(-c2cccnc2CNC(N)=O)c(Cc2ccccc2C#N)c1F [Example A-2]", "IC50": "300 to 30000 nM"}
{"molecule": "CC(C)(C)OC(=O)Nc1ccc(-c2cccnc2CCC(N)=O)c(Cc2ccccc2S(C)(=O)=O)c1F [Example A-40]", "IC50": "300 to 30000 nM"}
{"molecule": "NC(=O)NCc1ncccc1-c1ccc(NC(=O)OC2CC(F)(F)C2)c(F)c1Oc1ccccc1F [Example B-5]", "IC50": "300 to 30000 nM"}
{"molecule": "CC(C)(C)OC(=O)Nc1ccc(-c2cccnc2CNC(N)=O)c(Cc2ccc(F)cc2)c1F [Example A-16]", "IC50": "< 300 nM"}
{"molecule": "CC(C)(C)OC(=O)Nc1ccc(-c2cccnc2CNC(N)=O)c(Cc2cccc(F)c2)c1F [Example A-15]", "IC50": "300 to 30000 nM"}
{"molecule": "CC(C)(C)OC(=O)Nc1ccc(-c2cccnc2CNC(N)=O)c(CC2CC2)c1F [Example F-9]", "IC50": "300 to 30000 nM"}
{"molecule": "CC(c1ccccc1)c1cc(NC(=O)OC(C)(C)C)ccc1-c1cccnc1/C=C/C(N)=O (stereo not shown) [Example A-11]", "IC50": "300 to 30000 nM"}
{"molecule": "COC[C@H](C)OC(=O)Nc1ccc(-c2cccnc2CNC(N)=O)c(Cc2ccccc2F)c1F [Example A-25]", "IC50": "300 to 30000 nM"}
{"molecule": "CC(C)(C)OC(=O)Nc1c(F)cc(-c2cccnc2CNC(N)=O)c(Cc2ccccc2F)c1F [Example A-14]", "IC50": "< 300 nM"}
{"molecule": "CC(C)OC(=O)Nc1ccc(-c2cccnc2CNC(N)=O)c(Cc2ccccc2F)c1F [Example A-22]", "IC50": "< 300 nM"}
{"molecule": "NC(=O)NCc1ncccc1-c1ccc(NC(=O)O[C@H]2C[C@H](F)C2)c(F)c1Cc1ccccc1F [Example A-5]", "IC50": "< 300 nM"}
{"molecule": "NC(=O)NCc1ncccc1-c1ccc(NC(=O)OC2CCOC2)c(F)c1Cc1ccccc1F (stereo not shown) [Example A-28]", "IC50": "300 to 30000 nM"}
{"molecule": "C[C@H](OC(=O)Nc1ccc(-c2ccnnc2CCC(N)=O)c(Cc2ccccc2F)c1F)C(F)(F)F [Example C-5]", "IC50": "< 300 nM"}
{"molecule": "C[C@H](OC(=O)Nc1ccc(-c2cccnc2CNC(N)=O)c(Oc2ccccc2F)c1F)C(F)(F)F [Example B-3]", "IC50": "< 300 nM"}
{"molecule": "NC(=O)CCc1nnccc1-c1ccc(NC(=O)O[C@H]2C[C@H](F)C2)c(F)c1Cc1ccccc1F [Example C-7]", "IC50": "300 to 30000 nM"}

====

# test.system: human TSHR (Homo sapiens, UniProt P16473)
# test.name: Antagonist activity using TSH-induced cAMP generation in human TSHR-stably expressing CHO cells
# reported.conditions: human TSH 50 ng/mL
pIC50: −log10 of the molar value.
Recorded pIC50 by entry
measurement.name: pIC50

{"molecule": "CC(C)(C)OC(=O)Nc1ccc(-c2cccnc2CCC(N)=O)c(Cc2ccccc2C#N)c1F [Example A-39]", "test.value": "> 6.52"}
{"molecule": "NC(=O)NCc1ncccc1-c1ccc(NC(=O)OC2CC(F)(F)C2)c(F)c1Cc1ccccc1F [Example A-6]", "test.value": "> 6.52"}
{"molecule": "NC(=O)CCc1nnccc1-c1ccc(NC(=O)OC2CC(F)(F)C2)c(F)c1Cc1ccccc1F [Example C-8]", "test.value": "> 6.52"}
{"molecule": "C[C@H](OC(=O)Nc1ccc(-c2ccnnc2CNC(N)=O)c(Oc2ccccc2F)c1F)C(F)(F)F [Example D-2]", "test.value": "4.52 to 6.52"}
{"molecule": "C[C@H](OC(=O)Nc1ccc(-c2ccnnc2CNC(N)=O)c(Cc2ccccc2F)c1F)C(F)(F)F [Example C-2]", "test.value": "> 6.52"}
{"molecule": "CON(C(=O)Nc1ccc(-c2cccnc2CNC(N)=O)c(Cc2ccccc2F)c1F)C1CCCC1 [Example G-9]", "test.value": "4.52 to 6.52"}

====

# test.system: human TSHR (Homo sapiens, UniProt P16473)
# test.name: Antagonist activity using TSH-induced cAMP generation in human TSHR-stably expressing CHO cells
# reported.conditions: human TSH 50 ng/mL
# Protocol: Measurement of antagonist activity using TSH-induced cAMP generation in human TSHR-stably expressing CHO cells as an indicator The gene sequence (reference number: NM_000369.2) of a human TSHR was inserted into multiple cloning sites of pcDNA3.1 (+). […] Next, fluorescence intensity ratios (measurement wavelengths: 665 nm/620 nm) were measured using a multi-plate reader (PHERAstar FSX, BMG LABTECH, Japan). […]
pIC50: −log10 of the molar value.
measurement.name: pIC50

{"compound": "C[C@H](OC(=O)Nc1ccc(-c2cccnc2CNC(N)=O)c(Cc2ccccc2F)c1F)C(F)(F)F", "test.system": "human TSHR (Homo sapiens, UniProt P16473)", "test.value": "> 6.52"}
{"compound": "COc1ccccc1Cc1c(-c2cccnc2CNC(N)=O)ccc(NC(=O)OC(C)(C)C)c1F", "test.system": "human TSHR (Homo sapiens, UniProt P16473)", "test.value": "4.52 to 6.52"}
{"compound": "NC(=O)NCc1ncccc1-c1ccc(NC(=O)OC2CN3CCC2CC3)c(F)c1Cc1ccccc1F (stereo not shown)", "test.system": "human TSHR (Homo sapiens, UniProt P16473)", "test.value": "4.52 to 6.52"}
{"compound": "C[C@@H](OC(=O)Nc1ccc(-c2ccnnc2CCC(N)=O)c(Cc2ccccc2F)c1F)C1CC1", "test.system": "human TSHR (Homo sapiens, UniProt P16473)", "test.value": "> 6.52"}
